Data credit: patent US20230118024A1

target: T1, HLA-DQ2.5/omega 2 gliadin peptide complex on Ba/F3 cells (human; wheat); assay: FACS
T1 construct: also called Ba/F3-HLA-DQ2.5/omega 2 gliadin peptide
// label = Satisfied if FIG. 30 FACS value (IC17=0, DQN0139bb=100) is not less than 80, otherwise Not satisfied

Solved entries (count: 3):
{"binder": "DQN0223hh (antibody, human IgG1, kappa, V domains shown, also called DQN0223Lh) VH: QQQLEESGGGLVKPGGTLTLTCKASRIDFSTYYYICWVRQSPWKGLEWIACIYSGDGYTYYPSWAKGRFSISKTSSTTVTLQVTSLTAADTATYFCARSYGGSSASAYFTLWGPGTQVTVSS VL: AVVLTQTASPVSAPVGGTVTIKCQASQSIGSNLGWYQQKPGQPPKLLIYGASALASGVPSRFKGSGSGTQFTLTINDLECADAATYYCQGYYYSSSAEWHSFGGGTKVEIKR", "assigned-class": "Not satisfied"}
{"binder": "DQN0356bb (antibody, human IgG1, kappa, V domains shown, also called DQN0356Hb; DQN0356Lb) VH: QEQLVESGGGLVKPEGSLTLTCTASGFSFSSDYSVCWVRQAPGKGLEWIGCIYTGSDITYYASWAKGRFTISKTSSTTVTLQMTSLTAADTATWFCARSWNGYGGYADLWGPGTLVTVSS VL: AYDMAQTPASVEVAVGGTVTIKCQASQSIDNYLAWYQQKPGQPPKLLIYWASTLASGVSSRFKGSGSGTQFSLTISDLECADAATYYCQQYYSNSNVVNTFGGGTKVEIKR", "assigned-class": "Not satisfied"}
{"binder": "DQN0303hh (antibody, human IgG1, kappa, V domains shown, also called DQN0303Lh) VH: QQHLEESGGGLVKPGGTLTLTCTASGIDFSSYYYMCWVRQAPGKGLEWIACIYTGDGSTYYASWVNGRFTISRSTSLNTVTLQLNGLAAADTATYFCARSYGASSAIGYFNLWGPGTLVTVSS VL: DVVMTQTPSSKSAAVGGTVTIKCQASQNIYSNLAWYQQKPGQRPKLLIYEASTLASGVPSRFRGSGSGTEFTLTISDLECDDAATYYCQNYYYTSSNDFYTFGGGTKVEIKR", "assigned-class": "Satisfied"}

Would you kindly look at the next entry?
Reported FIG. 30 FACS value (IC17=0, DQN0139bb=100) reaches at least 80 for DQN0370hh (antibody, human IgG1, kappa, V domains shown, also called DQN0370Lh) VH: QSLEESGGGLVKPGGPLTLTCTASGFSFSSAYYMCWVRQAPGKGLEWIACIYVGSGSTYYTSWAKGRFTISKVSSTTMTLQMTSLTAADTATYFCARDPLIYYYYGELNLWGPGTLVTVSS VL: AVVLTQTASPVSAPVGGTVTIKCQASEDIYSNLAWYQQKPGQRPKVLIYSASTLASGVSSRFKGSRSGTEYTLSITDLGCADAATYYCQAYYDIGGVTFGGGTKVEIKR ?
Not satisfied
